Test system: Puccinia recondita—PUCCRT
protocolDetails: Brown rust of wheat, 1-day protectant whole plant test
Assay type: in vivo
experimentalSetup: 100 ppm spray, 1-day protectant (1DP), wheat cultivar Monon
PUCCRT percent control of the plant disease compared with untreated, inoculated plants overview
# number only, unit % dropped from output

Known results for compounds:
{"smilesInput": "CNC(=O)C(=NOC)c1ccccc1COc1ncc(Sc2ccccc2)cc1Cl", "measuredTarget": "Puccinia recondita—PUCCRT", "quantityUnit": "%", "valueMeasured": 98}
{"smilesInput": "CNC(=O)C(=NOC)c1cccc(Cl)c1COc1ccc(Sc2ccc(C)cc2)cn1", "measuredTarget": "Puccinia recondita—PUCCRT", "quantityUnit": "%", "valueMeasured": 99}
{"smilesInput": "CNC(=O)C(=NOC)c1ccccc1COc1cccc(Sc2cccc(C)c2)n1", "measuredTarget": "Puccinia recondita—PUCCRT", "quantityUnit": "%", "valueMeasured": 100}
{"smilesInput": "CNC(=O)C(=NOC)c1ccccc1COc1cccc(Sc2ccccc2Cl)n1", "measuredTarget": "Puccinia recondita—PUCCRT", "quantityUnit": "%", "valueMeasured": 100}

// "CNC(=O)C(=NOC)c1ccccc1COc1ccc(C(F)(F)F)c(Sc2ccccc2)n1" : PUCCRT percent control of the plant disease compared with untreated, inoculated plants value = 100

// "CCc1ccccc1Sc1cccc(OCc2ccccc2C(=NOC)C(=O)NC)n1" : PUCCRT percent control of the plant disease compared with untreated, inoculated plants value = 100

// "CNC(=O)C(=NOC)c1ccccc1COc1cccc(Sc2ccc(F)cc2)n1" : PUCCRT percent control of the plant disease compared with untreated, inoculated plants value = 100

// "CNC(=O)C(=NOC)c1ccccc1COc1nc(Sc2ccccc2)c(F)cc1F" : PUCCRT percent control of the plant disease compared with untreated, inoculated plants value = 100

// "CNC(=O)C(=NOC)c1ccccc1COc1cccc(Sc2c(C)cccc2C)n1" : PUCCRT percent control of the plant disease compared with untreated, inoculated plants value = 98

====

Test system: Leptosphaeria nodorum—LEPTNO
protocolDetails: Glume blotch of wheat, 1-day protectant whole plant test
Type: in vivo
experimentalSetup: 100 ppm spray, 1-day protectant (1DP), wheat cultivar Monon
measuredMetric: LEPTNO percent control of the plant disease compared with untreated, inoculated plants (%)
# number only, unit % dropped from output

{"smilesInput": "CNC(=O)C(=NOC)c1ccccc1COc1ccc(C(F)(F)F)c(Sc2ccccc2)n1", "measuredTarget": "Leptosphaeria nodorum—LEPTNO", "valueMeasured": 78}
{"smilesInput": "CNC(=O)C(=NOC)c1ccccc1COc1nc(Sc2ccccc2)c(Cl)cc1Cl", "measuredTarget": "Leptosphaeria nodorum—LEPTNO", "valueMeasured": 98}
{"smilesInput": "CNC(=O)C(=NOC)c1ccccc1COc1cccc(Sc2cccc(C(F)(F)F)c2)n1", "measuredTarget": "Leptosphaeria nodorum—LEPTNO", "valueMeasured": 78}

Here is the next item to consider.
// "CNC(=O)C(=NOC)c1ccccc1COc1cccc(Sc2ccc(Br)cc2)n1" : LEPTNO percent control of the plant disease compared with untreated, inoculated plants value = 98

====

PUCCRT percent control of the plant disease compared with untreated, inoculated plants overview
System: Puccinia recondita—PUCCRT
protocolDetails: Brown rust of wheat, 1-day protectant whole plant test
Format: in vivo
experimentalSetup: 100 ppm spray, 1-day protectant (1DP), wheat cultivar Monon
# number only, unit % dropped from output

Known results for molecules:
{"molecule": "CNC(=O)C(=NOC)c1ccccc1COc1nc(Sc2ccc(C(F)(F)F)cc2)c(Cl)cc1Cl [Compound 13]", "quantityUnit": "%", "valueMeasured": 98}
{"molecule": "CNC(=O)C(=NOC)c1ccccc1COc1cccc(Sc2ccc(Br)cc2)n1 [Compound 19]", "quantityUnit": "%", "valueMeasured": 100}
{"molecule": "CNC(=O)C(=NOC)c1cccc(Cl)c1COc1ccc(Sc2cccc(Cl)c2)cn1 [Compound 8]", "quantityUnit": "%", "valueMeasured": 98}
{"molecule": "CNC(=O)C(=NOC)c1ccccc1COc1cccc(Sc2ccccc2C(F)(F)F)n1 [Compound 29]", "quantityUnit": "%", "valueMeasured": 100}

Test item CNC(=O)C(=NOC)c1ccccc1COc1cccc(Sc2ccc3ccccc3c2)n1 [Compound 21] ; Puccinia recondita—PUCCRT; reported PUCCRT percent control of the plant disease compared with untreated, inoculated plants was 100

Test item CNC(=O)C(=NOC)c1ccccc1COc1cccc(Sc2ccccc2F)n1 [Compound 27] ; Puccinia recondita—PUCCRT; reported PUCCRT percent control of the plant disease compared with untreated, inoculated plants was 100

Test item CNC(=O)C(=NOC)c1cccc(Cl)c1COc1ccc(Sc2ccc(Cl)cc2)cn1 [Compound 5] ; Puccinia recondita—PUCCRT; reported PUCCRT percent control of the plant disease compared with untreated, inoculated plants was 100

Test item CNC(=O)C(=NOC)c1ccccc1COc1nc(Sc2ccccc2)c(Cl)cc1Cl [Compound 10] ; Puccinia recondita—PUCCRT; reported PUCCRT percent control of the plant disease compared with untreated, inoculated plants was 100
